Listing of recorded pIC50 by entry.
assay.method.text: Antiproliferative activity against mouse NS1 cells assessed as reduction in cell viability after 48 hrs by resazurin dye based assay
Format: functional
test.parameters: NS1, 48 h
Field pIC50 (float): negative decimal logarithm of the concentration in molar.

[
  {
    "smiles.code": "CO[C@@]12c3c(C)cc(O)c4c(=O)occ(c34)C(=O)[C@@H]1[C@]13COC(=O)c4c(O)cc(C)c(c41)C(=O)[C@H]2[C@@H]3OC(C)=O",
    "observed.value": 3.85
  }
]

Report pIC50 for `Cc1cc(O)c2c3c(c(O)cc(O)c13)C(=O)C(O)=C2O` please. 4.15

Report pIC50 for `O=c1[nH]cc(F)c(=O)[nH]1` please. 5.34

----------
Listing of recorded pIC50 by entry.
Test system: Bacillus subtilis
assay.method.text: Antibacterial activity against Bacillus subtilis ATCC 6633 assessed as reduction in microbial growth after incubated for 48 hrs by resazurin dye based assay
Type: functional, organism-based
test.parameters: ATCC 6633, 48 h
Field pIC50 (float): negative decimal logarithm of the concentration in molar.

[
  {
    "smiles.code": "Cc1cc(O)c2c3c(c(O)cc(O)c13)C(=O)C(O)=C2O",
    "observable": "pIC50",
    "observed.value": 3.58
  }
]

For the next question, use this compound.
Report pIC50 for `CC1(C)S[C@@H]2[C@H](NC(=O)[C@H](N)c3ccccc3)C(=O)N2[C@H]1C(=O)O` please. 6.05
